- testedTarget: UniProt Q9UBN7
- Sequence (Q9UBN7 whole entry): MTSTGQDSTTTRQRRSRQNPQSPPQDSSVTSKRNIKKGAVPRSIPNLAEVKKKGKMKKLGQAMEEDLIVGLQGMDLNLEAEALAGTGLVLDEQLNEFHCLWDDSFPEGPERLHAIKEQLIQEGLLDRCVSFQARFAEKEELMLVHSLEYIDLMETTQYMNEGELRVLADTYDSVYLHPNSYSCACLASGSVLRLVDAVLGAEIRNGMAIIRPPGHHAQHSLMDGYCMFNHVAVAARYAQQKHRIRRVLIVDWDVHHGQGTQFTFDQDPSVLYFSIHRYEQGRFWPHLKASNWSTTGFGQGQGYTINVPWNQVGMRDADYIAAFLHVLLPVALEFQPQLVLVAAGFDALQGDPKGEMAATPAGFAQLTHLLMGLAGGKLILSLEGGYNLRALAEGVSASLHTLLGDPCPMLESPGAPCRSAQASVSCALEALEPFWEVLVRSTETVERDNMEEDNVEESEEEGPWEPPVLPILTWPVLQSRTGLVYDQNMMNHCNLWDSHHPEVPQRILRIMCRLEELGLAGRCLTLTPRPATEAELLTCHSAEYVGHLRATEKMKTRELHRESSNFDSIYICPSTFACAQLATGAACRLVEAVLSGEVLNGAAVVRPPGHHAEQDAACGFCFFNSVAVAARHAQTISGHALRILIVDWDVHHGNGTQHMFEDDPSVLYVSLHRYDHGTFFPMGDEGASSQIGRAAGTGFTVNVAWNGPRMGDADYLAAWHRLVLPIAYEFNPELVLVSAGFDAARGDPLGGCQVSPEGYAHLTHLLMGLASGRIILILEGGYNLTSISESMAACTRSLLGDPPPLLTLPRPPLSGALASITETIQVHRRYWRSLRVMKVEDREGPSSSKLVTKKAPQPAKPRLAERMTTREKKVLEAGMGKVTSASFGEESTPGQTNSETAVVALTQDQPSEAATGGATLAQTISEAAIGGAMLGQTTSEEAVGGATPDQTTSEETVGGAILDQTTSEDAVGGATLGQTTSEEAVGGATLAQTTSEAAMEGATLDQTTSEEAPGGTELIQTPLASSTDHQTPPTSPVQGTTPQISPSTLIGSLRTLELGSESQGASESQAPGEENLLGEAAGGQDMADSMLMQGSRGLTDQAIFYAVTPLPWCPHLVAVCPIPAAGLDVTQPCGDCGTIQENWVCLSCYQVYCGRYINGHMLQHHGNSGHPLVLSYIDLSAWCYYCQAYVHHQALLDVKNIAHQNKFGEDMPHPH
- testSummary: HDAC biochemical assay
- conditionNotes: AMC-labeled peptide substrate
attributeMeasured: IC50 (µM)
Numbers only, in µM.

# compound, IC50, µM
rows = [
    ("O=c1c2ccccc2[se]n1-c1ccccc1 [Ebselen, 2-phenyl-1,2-benzisoselenazol-3(2H)-one]", 6.99),
]

// switching to the query compound
Value of measured IC50 for the entry Cc1ccccc1-n1sc2cc(F)ccc2c1=O [Thr101] : 4.14

---

- testedTarget: HDAC1 (Homo sapiens)
- Sequence (Q13547 whole entry): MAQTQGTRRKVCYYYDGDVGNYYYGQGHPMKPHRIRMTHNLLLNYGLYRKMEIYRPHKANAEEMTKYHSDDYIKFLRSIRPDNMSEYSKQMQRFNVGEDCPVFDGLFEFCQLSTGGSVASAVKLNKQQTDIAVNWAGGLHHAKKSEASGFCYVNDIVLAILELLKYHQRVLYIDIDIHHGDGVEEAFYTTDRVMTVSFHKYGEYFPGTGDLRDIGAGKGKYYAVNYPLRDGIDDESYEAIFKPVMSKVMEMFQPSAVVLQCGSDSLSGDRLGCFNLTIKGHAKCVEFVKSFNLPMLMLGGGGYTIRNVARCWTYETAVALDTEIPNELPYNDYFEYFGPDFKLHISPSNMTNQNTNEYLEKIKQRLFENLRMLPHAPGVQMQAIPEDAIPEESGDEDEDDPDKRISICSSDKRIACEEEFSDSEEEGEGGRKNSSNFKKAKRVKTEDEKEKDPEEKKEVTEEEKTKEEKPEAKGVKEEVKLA
- testSummary: HDAC biochemical assay
attributeMeasured: IC50

Value of measured IC50 for the entry O=c1c2ccccc2[se]n1-c1ccccc1 [Ebselen, 2-phenyl-1,2-benzisoselenazol-3(2H)-one] : > 10 µM

---

- testedTarget: UniProt Q9UKV0
- Sequence (Q9UKV0 whole entry): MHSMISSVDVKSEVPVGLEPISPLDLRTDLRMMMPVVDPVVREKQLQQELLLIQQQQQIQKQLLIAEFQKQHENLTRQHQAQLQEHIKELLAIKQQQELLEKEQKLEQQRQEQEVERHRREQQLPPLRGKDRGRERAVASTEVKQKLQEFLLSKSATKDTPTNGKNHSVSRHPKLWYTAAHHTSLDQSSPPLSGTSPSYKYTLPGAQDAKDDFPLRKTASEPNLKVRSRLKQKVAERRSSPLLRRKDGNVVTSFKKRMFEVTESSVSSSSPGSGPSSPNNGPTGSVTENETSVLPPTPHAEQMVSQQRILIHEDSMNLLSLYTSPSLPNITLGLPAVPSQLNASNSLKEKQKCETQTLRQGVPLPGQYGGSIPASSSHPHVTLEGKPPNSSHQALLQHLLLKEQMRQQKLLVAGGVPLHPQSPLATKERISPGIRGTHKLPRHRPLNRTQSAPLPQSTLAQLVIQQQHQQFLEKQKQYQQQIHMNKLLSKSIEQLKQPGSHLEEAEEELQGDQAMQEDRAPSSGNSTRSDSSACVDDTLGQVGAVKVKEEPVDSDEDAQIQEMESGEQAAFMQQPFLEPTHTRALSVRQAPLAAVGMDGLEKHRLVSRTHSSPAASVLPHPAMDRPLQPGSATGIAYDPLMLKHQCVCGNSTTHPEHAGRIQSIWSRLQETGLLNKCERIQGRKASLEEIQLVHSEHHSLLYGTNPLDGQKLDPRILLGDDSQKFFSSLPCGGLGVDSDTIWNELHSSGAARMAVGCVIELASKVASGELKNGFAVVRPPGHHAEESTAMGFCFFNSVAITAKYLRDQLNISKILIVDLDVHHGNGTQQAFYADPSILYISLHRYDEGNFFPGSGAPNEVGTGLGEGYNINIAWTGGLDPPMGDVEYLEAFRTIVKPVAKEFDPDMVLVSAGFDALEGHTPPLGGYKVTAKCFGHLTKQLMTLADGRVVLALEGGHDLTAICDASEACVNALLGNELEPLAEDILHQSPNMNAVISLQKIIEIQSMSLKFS
- testSummary: HDAC biochemical assay
- conditionNotes: HDAC9 IC50, biochemical HDAC assay, acetyl-Lys(trifluoroacetyl)-AMC substrate
attributeMeasured: pIC50
Answers are plain numbers, as −log10 of the molar value.

Value of measured pIC50 for the entry "O=c1c2ccccc2[se]n1-c1ccccc1" : 5.43

---

- testedTarget: HDAC7 (Homo sapiens, UniProt Q8WUI4)
- Sequence (Q8WUI4 1-952): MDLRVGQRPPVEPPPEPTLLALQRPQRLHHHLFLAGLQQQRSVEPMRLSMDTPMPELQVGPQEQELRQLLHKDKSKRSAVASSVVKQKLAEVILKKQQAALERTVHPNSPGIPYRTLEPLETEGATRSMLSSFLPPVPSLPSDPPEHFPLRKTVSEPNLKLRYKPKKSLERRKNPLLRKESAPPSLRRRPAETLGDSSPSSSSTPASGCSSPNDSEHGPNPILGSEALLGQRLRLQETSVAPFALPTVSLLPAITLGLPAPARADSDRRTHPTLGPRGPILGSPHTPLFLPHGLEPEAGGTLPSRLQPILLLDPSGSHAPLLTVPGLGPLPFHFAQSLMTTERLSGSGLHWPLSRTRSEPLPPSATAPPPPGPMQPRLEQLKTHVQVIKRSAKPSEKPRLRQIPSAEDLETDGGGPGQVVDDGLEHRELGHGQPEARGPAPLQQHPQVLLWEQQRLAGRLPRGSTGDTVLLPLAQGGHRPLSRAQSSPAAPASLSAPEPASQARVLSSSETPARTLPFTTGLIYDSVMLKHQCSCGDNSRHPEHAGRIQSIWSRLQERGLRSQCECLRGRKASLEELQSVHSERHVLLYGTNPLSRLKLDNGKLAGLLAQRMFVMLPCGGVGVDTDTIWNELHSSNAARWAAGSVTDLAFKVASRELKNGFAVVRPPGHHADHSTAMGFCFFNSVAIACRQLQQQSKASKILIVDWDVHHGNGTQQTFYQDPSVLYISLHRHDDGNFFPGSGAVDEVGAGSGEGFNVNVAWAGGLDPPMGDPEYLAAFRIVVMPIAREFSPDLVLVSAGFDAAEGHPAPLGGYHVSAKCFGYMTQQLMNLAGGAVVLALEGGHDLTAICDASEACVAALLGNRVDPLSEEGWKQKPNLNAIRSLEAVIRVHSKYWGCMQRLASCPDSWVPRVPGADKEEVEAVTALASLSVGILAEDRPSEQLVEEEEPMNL
attributeMeasured: IC50 (µM)
Numbers only, in µM.

The measured IC50 that "Cc1ccccc1-n1sc2cc(F)ccc2c1=O" showed for HDAC7 (Homo sapiens, UniProt Q8WUI4) is 3.43

---

HDAC11 (Homo sapiens, UniProt Q96DB2): recorded IC50 for assorted compounds
Sequence (Q96DB2 whole entry): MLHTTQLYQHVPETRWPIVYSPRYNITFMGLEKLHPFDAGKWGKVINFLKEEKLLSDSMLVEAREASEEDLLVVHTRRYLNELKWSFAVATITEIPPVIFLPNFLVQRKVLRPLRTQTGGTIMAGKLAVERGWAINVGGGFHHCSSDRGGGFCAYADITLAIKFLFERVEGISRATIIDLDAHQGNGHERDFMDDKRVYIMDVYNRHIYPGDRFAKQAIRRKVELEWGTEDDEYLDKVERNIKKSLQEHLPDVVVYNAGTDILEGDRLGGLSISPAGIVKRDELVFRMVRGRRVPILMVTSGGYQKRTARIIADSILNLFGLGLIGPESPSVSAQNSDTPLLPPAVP

# smilesRepr, IC50
measured = [
    ("Cc1ccccc1-n1sc2cc(F)ccc2c1=O", "> 10 µM"),
]

// switching to the query compound
Value of measured IC50 for the entry "O=c1c2ccccc2[se]n1-c1ccccc1" : > 10 µM

---

- testedTarget: UniProtKB Q9UKV0
- testSummary: HDAC biochemical assay
attributeMeasured: pIC50
Numbers only, as −log10 of the molar value.

Value of measured pIC50 for the entry Cc1ccccc1-n1sc2cc(F)ccc2c1=O [Thr101] : 5.42

---

- testedTarget: HDAC3 (Homo sapiens)
- Sequence (O15379 whole entry): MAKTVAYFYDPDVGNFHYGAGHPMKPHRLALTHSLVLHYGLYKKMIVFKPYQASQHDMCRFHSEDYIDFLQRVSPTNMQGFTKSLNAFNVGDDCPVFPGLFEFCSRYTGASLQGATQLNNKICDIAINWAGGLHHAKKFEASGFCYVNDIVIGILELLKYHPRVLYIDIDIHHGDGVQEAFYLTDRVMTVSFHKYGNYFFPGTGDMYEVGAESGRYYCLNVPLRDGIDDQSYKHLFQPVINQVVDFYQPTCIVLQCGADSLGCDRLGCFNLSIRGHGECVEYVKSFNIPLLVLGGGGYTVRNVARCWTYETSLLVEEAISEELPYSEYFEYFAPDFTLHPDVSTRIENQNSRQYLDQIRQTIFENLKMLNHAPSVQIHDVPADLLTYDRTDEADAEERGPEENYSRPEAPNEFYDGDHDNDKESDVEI
- Sequence (Q9Y618 395-489 partner limits assumed): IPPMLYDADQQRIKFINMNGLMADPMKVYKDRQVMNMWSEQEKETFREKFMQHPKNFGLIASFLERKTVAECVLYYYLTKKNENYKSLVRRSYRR
attributeMeasured: pIC50
One number for each entry, as −log10 of the molar value.

Value of measured pIC50 for the entry "Cc1ccccc1-n1sc2cc(F)ccc2c1=O" : 5.37
